Tested on: 966289-007-R4-J1-PDC complex spheroid viability;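 further: spheroids exposed to the agents for seven days before readout; percent viability relative to DMSO vehicle control wells taken as 100%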
Assay Notes: Anticancer human tumor 966289-007-R4-J1-PDC patient-derived pancreatic adenocarcinoma cell line growth inhibition [GQUAD]; active means viability on the fitted dose curve at most 10% of control; inactive means the rest
Conditions: second compound 0.0316 µM; first compound 3.16 µM
Excerpt: DNA G-quadruplex Stabilizer Agents in Combinations in Complex Spheroids A high-throughput screen of multi-cell type tumor spheroids was designed to identify active combinations of DNA G-quadruplex stabilizer agents and targeted small molecules. […] Compounds. […] If the clinical Cmax for an agent had not been determined, the highest concentration tested was 10 microM. […]
Outcome codes: 1.0 = active, 0.0 = inactive

{"columns": ["Molecule", "Class"],
 "data": [
  ["CCCS(=O)(=O)Nc1ccc(F)c(C(=O)c2c[nH]c3ncc(-c4ccc(Cl)cc4)cc23)c1F + CN(C)c1ccc(Nc2c3ccc(NC(=O)CCN4CCCC4)cc3nc3cc(NC(=O)CCN4CCCC4)ccc23)cc1", 0.0],
  ["O=C(NO)c1cnc(N2CCN(S(=O)(=O)c3ccc4ccccc4c3)CC2)nc1 + Cc1cnc(CNC(=O)c2c(=O)c3ccc(N4CCCN(C)CC4)nc3n3c2sc2ccccc23)cn1", 1.0],
  ["CC(C)n1c(=O)n(C)c2cnc3cc(F)c(-c4ccc(OCCCN5CCCCC5)nc4)cc3c21 + Cc1[nH]c2ccc(F)cc2c1-c1nc2c3cccnc3c3ncccc3c2[nH]1", 0.0]
]}
